Conditions: in isopropanol, 333.15 K
experimental endpoint: solubility (mole fraction)

Request: Give the reported solubility (mole fraction) for this molecule. O=C(O)[C@@H]1C[C@@H](O)CN1
Response: 0.000493

* * *

Details: in n-pentanol, 298.15 K
experimental endpoint: solubility (mole fraction)
Please reply with the number alone, leaving off any unit.

Request: Give the reported solubility (mole fraction) for this molecule. O=C(O)[C@@H]1C[C@@H](O)CN1
Response: 0.000142

* * *

Conditions: in 2-butanone, 293.15 K
experimental endpoint: solubility (mole fraction)
Please reply with the number alone, leaving off any unit.

Request: Give the reported solubility (mole fraction) for this molecule. O=C(O)[C@@H]1C[C@@H](O)CN1
Response: 0.000128

* * *

Conditions: in methanol, 323.15 K
experimental endpoint: solubility (mole fraction)
Please reply with the number alone, leaving off any unit.

Request: Give the reported solubility (mole fraction) for this compound. O=C(O)[C@@H]1C[C@@H](O)CN1
Response: 0.000525

* * *

Settings: in isobutanol, 333.15 K
experimental endpoint: solubility (mole fraction)
Please reply with the number alone, leaving off any unit.

Request: Give the reported solubility (mole fraction) for this compound. O=C(O)[C@@H]1C[C@@H](O)CN1
Response: 0.000383

* * *

Settings: in methyl acetate, 283.15 K
experimental endpoint: solubility (mole fraction)

Request: Give the reported solubility (mole fraction) for this compound. O=C(O)[C@@H]1C[C@@H](O)CN1
Response: 1.5e-05

* * *

Details: in water, 293.15 K
experimental endpoint: solubility (mole fraction)
Please reply with the number alone, leaving off any unit.

Request: Give the reported solubility (mole fraction) for this compound. O=C(O)[C@@H]1C[C@@H](O)CN1
Response: 0.0493

* * *

Settings: in 2-butanone, 323.15 K
experimental endpoint: solubility (mole fraction)
Please reply with the number alone, leaving off any unit.

Request: Give the reported solubility (mole fraction) for this molecule. O=C(O)[C@@H]1C[C@@H](O)CN1
Response: 0.000723

* * *

Conditions: in n-butanol, 308.15 K
experimental endpoint: solubility (mole fraction)
Please reply with the number alone, leaving off any unit.

Request: Give the reported solubility (mole fraction) for this compound. O=C(O)[C@@H]1C[C@@H](O)CN1
Response: 0.000219

* * *

Conditions: in isobutanol, 328.15 K
experimental endpoint: solubility (mole fraction)
Please reply with the number alone, leaving off any unit.

Request: Give the reported solubility (mole fraction) for this molecule. O=C(O)[C@@H]1C[C@@H](O)CN1
Response: 0.000346

* * *

Details: in 2-butanone, 318.15 K
experimental endpoint: solubility (mole fraction)
Please reply with the number alone, leaving off any unit.

Request: Give the reported solubility (mole fraction) for this compound. O=C(O)[C@@H]1C[C@@H](O)CN1
Response: 0.000602

* * *

Conditions: in sec-butanol, 313.15 K
experimental endpoint: solubility (mole fraction)
Please reply with the number alone, leaving off any unit.

Request: Give the reported solubility (mole fraction) for this compound. O=C(O)[C@@H]1C[C@@H](O)CN1
Response: 0.000245

* * *

Details: in water, 328.15 K
experimental endpoint: solubility (mole fraction)

Request: Give the reported solubility (mole fraction) for this molecule. O=C(O)[C@@H]1C[C@@H](O)CN1
Response: 0.0632

* * *

Conditions: in ethanol, 283.15 K
experimental endpoint: solubility (mole fraction)
Please reply with the number alone, leaving off any unit.

Request: Give the reported solubility (mole fraction) for this molecule. O=C(O)[C@@H]1C[C@@H](O)CN1
Response: 7e-05

* * *

Settings: in n-pentanol, 283.15 K
experimental endpoint: solubility (mole fraction)
Please reply with the number alone, leaving off any unit.

Request: Give the reported solubility (mole fraction) for this compound. O=C(O)[C@@H]1C[C@@H](O)CN1
Response: 6.3e-05

* * *

Conditions: in acetonitrile, 303.15 K
experimental endpoint: solubility (mole fraction)
Please reply with the number alone, leaving off any unit.

Request: Give the reported solubility (mole fraction) for this compound. O=C(O)[C@@H]1C[C@@H](O)CN1
Response: 0.000146

* * *

Settings: in dichloromethane, 303.15 K
experimental endpoint: solubility (mole fraction)

Request: Give the reported solubility (mole fraction) for this compound. O=C(O)[C@@H]1C[C@@H](O)CN1
Response: 0.000511

* * *

Conditions: in methyl acetate, 318.15 K
experimental endpoint: solubility (mole fraction)
Please reply with the number alone, leaving off any unit.

Request: Give the reported solubility (mole fraction) for this molecule. O=C(O)[C@@H]1C[C@@H](O)CN1
Response: 0.000331

* * *

Details: in n-propanol, 313.15 K
experimental endpoint: solubility (mole fraction)

Request: Give the reported solubility (mole fraction) for this compound. O=C(O)[C@@H]1C[C@@H](O)CN1
Response: 0.000304

* * *

Details: in n-propanol, 288.15 K
experimental endpoint: solubility (mole fraction)
Please reply with the number alone, leaving off any unit.

Request: Give the reported solubility (mole fraction) for this molecule. O=C(O)[C@@H]1C[C@@H](O)CN1
Response: 0.000109

* * *

Details: in n-propanol, 308.15 K
experimental endpoint: solubility (mole fraction)
Please reply with the number alone, leaving off any unit.

Request: Give the reported solubility (mole fraction) for this compound. O=C(O)[C@@H]1C[C@@H](O)CN1
Response: 0.000253

* * *

Conditions: in isobutanol, 318.15 K
experimental endpoint: solubility (mole fraction)
Please reply with the number alone, leaving off any unit.

Request: Give the reported solubility (mole fraction) for this molecule. O=C(O)[C@@H]1C[C@@H](O)CN1
Response: 0.000263

* * *

Conditions: in 2-butanone, 303.15 K
experimental endpoint: solubility (mole fraction)
Please reply with the number alone, leaving off any unit.

Request: Give the reported solubility (mole fraction) for this compound. O=C(O)[C@@H]1C[C@@H](O)CN1
Response: 0.00028

* * *

Details: in methanol, 318.15 K
experimental endpoint: solubility (mole fraction)

Request: Give the reported solubility (mole fraction) for this compound. O=C(O)[C@@H]1C[C@@H](O)CN1
Response: 0.000407

* * *

Conditions: in n-propanol, 318.15 K
experimental endpoint: solubility (mole fraction)
Please reply with the number alone, leaving off any unit.

Request: Give the reported solubility (mole fraction) for this compound. O=C(O)[C@@H]1C[C@@H](O)CN1
Response: 0.000355

* * *

Settings: in water, 333.15 K
experimental endpoint: solubility (mole fraction)
Please reply with the number alone, leaving off any unit.

Request: Give the reported solubility (mole fraction) for this compound. O=C(O)[C@@H]1C[C@@H](O)CN1
Response: 0.0671

* * *

Settings: in 1,4-dioxane, 293.15 K
experimental endpoint: solubility (mole fraction)
Please reply with the number alone, leaving off any unit.

Request: Give the reported solubility (mole fraction) for this compound. O=C(O)[C@@H]1C[C@@H](O)CN1
Response: 0.00063

* * *

Conditions: in n-butanol, 288.15 K
experimental endpoint: solubility (mole fraction)
Please reply with the number alone, leaving off any unit.

Request: Give the reported solubility (mole fraction) for this molecule. O=C(O)[C@@H]1C[C@@H](O)CN1
Response: 0.0001

* * *

Conditions: in acetonitrile, 308.15 K
experimental endpoint: solubility (mole fraction)
Please reply with the number alone, leaving off any unit.

Request: Give the reported solubility (mole fraction) for this compound. O=C(O)[C@@H]1C[C@@H](O)CN1
Response: 0.000186

* * *

Conditions: in n-propanol, 333.15 K
experimental endpoint: solubility (mole fraction)
Please reply with the number alone, leaving off any unit.

Request: Give the reported solubility (mole fraction) for this compound. O=C(O)[C@@H]1C[C@@H](O)CN1
Response: 0.000502

* * *

Details: in acetone, 328.15 K
experimental endpoint: solubility (mole fraction)

Request: Give the reported solubility (mole fraction) for this compound. O=C(O)[C@@H]1C[C@@H](O)CN1
Response: 0.00441

* * *

Conditions: in 2-butanone, 298.15 K
experimental endpoint: solubility (mole fraction)
Please reply with the number alone, leaving off any unit.

Request: Give the reported solubility (mole fraction) for this compound. O=C(O)[C@@H]1C[C@@H](O)CN1
Response: 0.00019

* * *

Conditions: in acetonitrile, 313.15 K
experimental endpoint: solubility (mole fraction)

Request: Give the reported solubility (mole fraction) for this compound. O=C(O)[C@@H]1C[C@@H](O)CN1
Response: 0.000226

* * *

Settings: in 1,4-dioxane, 323.15 K
experimental endpoint: solubility (mole fraction)
Please reply with the number alone, leaving off any unit.

Request: Give the reported solubility (mole fraction) for this compound. O=C(O)[C@@H]1C[C@@H](O)CN1
Response: 0.00204

* * *

Details: in ethyl acetate, 313.15 K
experimental endpoint: solubility (mole fraction)
Please reply with the number alone, leaving off any unit.

Request: Give the reported solubility (mole fraction) for this molecule. O=C(O)[C@@H]1C[C@@H](O)CN1
Response: 0.0019

* * *

Settings: in isobutanol, 313.15 K
experimental endpoint: solubility (mole fraction)

Request: Give the reported solubility (mole fraction) for this molecule. O=C(O)[C@@H]1C[C@@H](O)CN1
Response: 0.000222

* * *

Settings: in ethanol, 323.15 K
experimental endpoint: solubility (mole fraction)
Please reply with the number alone, leaving off any unit.

Request: Give the reported solubility (mole fraction) for this molecule. O=C(O)[C@@H]1C[C@@H](O)CN1
Response: 0.000431

* * *

Settings: in water, 323.15 K
experimental endpoint: solubility (mole fraction)
Please reply with the number alone, leaving off any unit.

Request: Give the reported solubility (mole fraction) for this compound. O=C(O)[C@@H]1C[C@@H](O)CN1
Response: 0.0612
